// provenance: the supplement of paper PMC10065799

- system: SHP2-C SH2
- measurementDescription: SH2 binding enrichment of the phosphorylated peptide, bacterial display (enrichment ratio); higher = better substrate or ligand; peptides without Tyr show the background
Class TRUE: SH2 binding enrichment at least 0.7. Class FALSE: SH2 binding enrichment below 0.7.

Does TTSQLYDAVPI [PDPK1_Y9] have a reported SH2 binding enrichment of at least 0.7? TRUE

Does VRTGIYHGGKP [PIK3CA_Y361_E365K] have a reported SH2 binding enrichment of at least 0.7? TRUE

Does PTTKTYFPHFG [HBA1_Y43_D48G] have a reported SH2 binding enrichment of at least 0.7? TRUE

Does LFEDHYLLGTS [ASS1_Y87_R86H_YF] have a reported SH2 binding enrichment of at least 0.7? FALSE

Does KAEQLYIGVTV [EFHC2_Y509_E507Q] have a reported SH2 binding enrichment of at least 0.7? TRUE

Does FSEVRYVKEPY [HIPK4_Y170] have a reported SH2 binding enrichment of at least 0.7? FALSE

Does SSSPTYLDLPF [GLI3_Y168_P169L] have a reported SH2 binding enrichment of at least 0.7? FALSE

Does QAFSWYQHQRA [NDST1_Y714_R709Q_YF] have a reported SH2 binding enrichment of at least 0.7? TRUE

Does GRFCGYKSKHG [EPHA3_Y570] have a reported SH2 binding enrichment of at least 0.7? TRUE

Does VGSIEYLKREW [KCNMA1_Y885] have a reported SH2 binding enrichment of at least 0.7? TRUE

Does RSPLRYTSILT [OR51B6_Y130] have a reported SH2 binding enrichment of at least 0.7? TRUE

Does FDCKWYIPLTD [BCR_Y756_YF] have a reported SH2 binding enrichment of at least 0.7? TRUE

Does LLREWYVQDPF [SIX3_Y225_L226V_YF] have a reported SH2 binding enrichment of at least 0.7? TRUE

Does FSKRIYKGMVA [PCDH15_Y931] have a reported SH2 binding enrichment of at least 0.7? FALSE

* * *

- system: Jak2 (UniProt O60674)
- Sequence (O60674 whole entry, looked up): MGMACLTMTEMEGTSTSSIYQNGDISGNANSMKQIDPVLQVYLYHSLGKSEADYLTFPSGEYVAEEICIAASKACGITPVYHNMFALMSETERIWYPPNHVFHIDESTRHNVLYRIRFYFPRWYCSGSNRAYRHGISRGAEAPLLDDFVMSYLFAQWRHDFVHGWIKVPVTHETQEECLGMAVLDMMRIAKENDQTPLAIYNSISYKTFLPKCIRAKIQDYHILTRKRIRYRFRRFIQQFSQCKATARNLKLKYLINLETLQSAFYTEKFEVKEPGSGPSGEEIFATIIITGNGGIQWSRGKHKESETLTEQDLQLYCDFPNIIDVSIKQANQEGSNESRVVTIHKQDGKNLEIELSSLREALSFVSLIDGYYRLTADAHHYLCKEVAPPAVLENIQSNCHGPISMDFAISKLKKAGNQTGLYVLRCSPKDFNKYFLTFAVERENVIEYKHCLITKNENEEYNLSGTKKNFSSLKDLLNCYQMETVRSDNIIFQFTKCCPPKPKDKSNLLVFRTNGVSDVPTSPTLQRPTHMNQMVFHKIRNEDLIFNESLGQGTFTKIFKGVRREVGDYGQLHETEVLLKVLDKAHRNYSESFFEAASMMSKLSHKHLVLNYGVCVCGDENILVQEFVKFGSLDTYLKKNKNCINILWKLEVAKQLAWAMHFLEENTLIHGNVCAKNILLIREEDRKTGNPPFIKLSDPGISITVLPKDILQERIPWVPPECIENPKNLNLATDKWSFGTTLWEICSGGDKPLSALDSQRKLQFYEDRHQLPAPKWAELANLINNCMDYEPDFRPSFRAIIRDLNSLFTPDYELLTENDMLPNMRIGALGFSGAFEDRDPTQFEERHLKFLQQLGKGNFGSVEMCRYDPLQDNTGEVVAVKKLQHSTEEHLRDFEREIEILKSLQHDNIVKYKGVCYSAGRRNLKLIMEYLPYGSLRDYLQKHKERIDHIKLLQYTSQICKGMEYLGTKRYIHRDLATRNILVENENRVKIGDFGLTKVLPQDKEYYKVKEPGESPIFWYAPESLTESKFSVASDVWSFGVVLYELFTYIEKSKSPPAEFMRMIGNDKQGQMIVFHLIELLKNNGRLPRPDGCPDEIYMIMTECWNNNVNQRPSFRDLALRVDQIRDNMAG
- measurementDescription: phosphorylation enrichment, bacterial display (enrichment ratio); higher = better substrate or ligand; peptides without Tyr show the background
Exercise: state measured phosphorylation enrichment for each of the sequences provided.
Keep it simple and answer with nothing but the number.

Observed phosphorylation enrichment on Jak2 (UniProt O60674) for LLQKTYNYNVL [SLC4A1_Y553_P548L] , please. 0.834

Observed phosphorylation enrichment on Jak2 (UniProt O60674) for PSPMPCASCQM [FOXL2_Y215_Y215C] , please. 0.766

Observed phosphorylation enrichment on Jak2 (UniProt O60674) for KHMADYPDCKY [SOX11_Y113_Y116C] , please. 1.07

Observed phosphorylation enrichment on Jak2 (UniProt O60674) for TVLEPYTDPYY [ZC3H18_Y367_A368T] , please. 0.805

Observed phosphorylation enrichment on Jak2 (UniProt O60674) for SELVCYDARVH [MET_Y971_R970C] , please. 0.867

Observed phosphorylation enrichment on Jak2 (UniProt O60674) for VAMDDYLKNVV [LRRK2_Y707_M712V] , please. 0.708

Observed phosphorylation enrichment on Jak2 (UniProt O60674) for ARDVIYIIIPA [FRKtide_2014] , please. 1.42

Observed phosphorylation enrichment on Jak2 (UniProt O60674) for DVFRQYASLRG [GANAB_Y379_T383R] , please. 0.504

Observed phosphorylation enrichment on Jak2 (UniProt O60674) for ALAPKYHGGGG [HBB_Y146_H144P] , please. 0.423

Observed phosphorylation enrichment on Jak2 (UniProt O60674) for `ITKNPYDPPGR` , please. 0.662

Observed phosphorylation enrichment on Jak2 (UniProt O60674) for NKHTNYTMEHI [ACTN1_Y708] , please. 0.421

Observed phosphorylation enrichment on Jak2 (UniProt O60674) for GRTNIYKNKKD [SLC26A3_Y520] , please. 0.66

Observed phosphorylation enrichment on Jak2 (UniProt O60674) for SKNSKYNAGST [PSEN1_Y315_E318G] , please. 0.608

Observed phosphorylation enrichment on Jak2 (UniProt O60674) for SVTCTYSRALN [TP53_Y126_P128R] , please. 1.07

* * *

- system: c-Src SH2
- measurementDescription: SH2 binding enrichment of the phosphorylated peptide, bacterial display (enrichment ratio); higher = better substrate or ligand; peptides without Tyr show the background
quantityKind: SH2 binding enrichment
Keep it simple and answer with nothing but the number.

// lookup SH2 binding enrichment for LQRCKYSHMEP [TEX45_Y434] 0.78

// lookup SH2 binding enrichment for DALDNYVIRGV [PCCA_Y473] 0.453

// lookup SH2 binding enrichment for IGCHAYGDQYR [IDH1_Y135_R132C] 0.551

// lookup SH2 binding enrichment for NYDLDYDSVQP [MYC_Y16] 1.26

// lookup SH2 binding enrichment for TTEHIYGDKFF [UBA7_Y524_N527K] 0.471

// lookup SH2 binding enrichment for GLAKEYIDPET [CSNK1G2_Y195] 0.448

// lookup SH2 binding enrichment for PGQRVYVVAER [SHH_Y316] 0.665

// lookup SH2 binding enrichment for YLGRDYLETLM [DUS3L_Y610] 0.563

// lookup SH2 binding enrichment for KVWGIYDCQQP [CYP3A7_Y75] 0.472

// lookup SH2 binding enrichment for `ITKNPYDPPGR` 0.513

// lookup SH2 binding enrichment for QEALEYFMKQT [PIK3CA_Y1038_M1043T] 0.41

// lookup SH2 binding enrichment for ARQEEYSAMRD [KRAS_Y64_G60R] 0.804

// lookup SH2 binding enrichment for EREYKYGAHNH [OAT_Y50_Y55H] 0.708

// lookup SH2 binding enrichment for IIGNGYFFRVF [MYBPC3_Y1135_YF] 0.453

// lookup SH2 binding enrichment for AWVARYIFKRL [LPCAT3_Y348] 1

// lookup SH2 binding enrichment for FFRRHYPLTTL [TNS4_Y644] 0.422

// lookup SH2 binding enrichment for GYSRHCEDGYP [CTNND1_Y217_Y217C] 0.544

// lookup SH2 binding enrichment for TRSCKYLLLSM [NF1_Y491_Y489C] 1.04

// lookup SH2 binding enrichment for KGIQLYDTPFE [SHB_Y297_YF] 2.76

// lookup SH2 binding enrichment for DAVAVCHGKIS [SH2D1A_Y7_Y7C] 0.536

// lookup SH2 binding enrichment for RIILLYIFLKN [STXBP1_Y411] 1.11

// lookup SH2 binding enrichment for RGRSTCFWPRP [GAGE12J_Y9_Y9C_YF] 0.571

// lookup SH2 binding enrichment for IKELTYQMEED [MYH7_Y1852_T1854M] 0.507

// lookup SH2 binding enrichment for RSRQIYDAYIM [GRK3_Y109] 0.683

// lookup SH2 binding enrichment for LITTLYSGFLG [KCNQ1_Y267_I268S] 1.44

// lookup SH2 binding enrichment for FADIAYIYRHG [PAH_Y166_N167I] 0.695

// lookup SH2 binding enrichment for ATPKGYERDAS [OTC_Y223_P225R] 0.444

// lookup SH2 binding enrichment for VVAHHYSFAPD [TNS3_Y601_Q600H] 2.22

// lookup SH2 binding enrichment for WQQQSYLDLGI [CTNNB1_Y30_S33L] 0.607

// lookup SH2 binding enrichment for CTTIHYNFTCN [TP53_Y234_M237T_YF] 1.67

// lookup SH2 binding enrichment for VLALWYFFLTH [ZDHHC23_Y127_YF] 1.06

// lookup SH2 binding enrichment for LVRPPYSFLAL [FOXI1_Y126_S129L_YF] 0.547

// lookup SH2 binding enrichment for RNEAFYDTFST [EFCAB3_Y372_S370A] 0.801

// lookup SH2 binding enrichment for DLDTEYGSGYP [RNASEH2A_Y206_D205E] 0.531

// lookup SH2 binding enrichment for PFTRNYYVQAV [CYBA_Y87_R90Q] 1.19

// lookup SH2 binding enrichment for LVRAFYCERRR [CARD11_Y970] 0.243

// lookup SH2 binding enrichment for NGSKAYAFVHF [PABPC5_Y147_G146A_YF] 1.65

// lookup SH2 binding enrichment for NPQKSYFIRLF [WAS_Y83_YF] 0.701

// lookup SH2 binding enrichment for ICTVDYLLRLQ [RYR1_Y3921] 0.459

// lookup SH2 binding enrichment for IGLHAYGDQYR [IDH1_Y135_R132L] 0.469

// lookup SH2 binding enrichment for RNYDTYTAGLS [RHBDD1_Y264] 0.621

// lookup SH2 binding enrichment for SRGRQYQELPR [KCNH2_Y1009] 1.29

// lookup SH2 binding enrichment for NHYKIHNLCAE [PTEN_Y68_Y68H] 0.554

// lookup SH2 binding enrichment for EPGNLYIAKVE [CNTN4_Y180_T176P] 0.405

// lookup SH2 binding enrichment for EVASVYQSYQP [MAVS_Y92] 0.609

// lookup SH2 binding enrichment for FPQARYHWLVL [APTX_Y214_K211Q_YF] 1.13

// lookup SH2 binding enrichment for RLLRGYDQFAY [HLA-C_Y137_S140F] 1.65

// lookup SH2 binding enrichment for FSCLPCGRLAF [SLC52A2_Y305_Y305C_YF] 1.62

// lookup SH2 binding enrichment for GYRPVYSEDEQ [CHST6_Y362] 0.692

// lookup SH2 binding enrichment for DKITQYVEEVR [STX2_Y49_K54R] 0.45

// lookup SH2 binding enrichment for AAVPAYDKIRV [STXBP2_Y401] 4.85

// lookup SH2 binding enrichment for FSEVRYVKEPY [HIPK4_Y170] 0.624

// lookup SH2 binding enrichment for ISDDNYGRIRL [ARCN1_Y310_K309N] 0.518

// lookup SH2 binding enrichment for ELANYYKLHHI [AK7_Y391] 0.474

// lookup SH2 binding enrichment for QAFSWYQHQRA [NDST1_Y714_R709Q_YF] 0.709

// lookup SH2 binding enrichment for VQQVIYATGAL [MYH7_Y422] 0.413

// lookup SH2 binding enrichment for VPFAQYLAMNK [HARS1_Y138_R137Q] 0.533

// lookup SH2 binding enrichment for DVFRQYASLRG [GANAB_Y379_T383R] 1.57
